Data credit: patent US20220205982A1

- assay.notes: Melphalan test dose and full dose pharmacokinetics in patients undergoing RIC allogeneic HCT for non-malignant disorders (Bayesian analysis of plasma concentrations)
- Assay type: in vivo, human
- condition.summary: human, plasma, intravenous, median; PK-adjusted full dose, N = 6 (7); read-out: Full dose AUC
observed.property: AUC (ng·h/mL)
Response body: numeric value in ng·h/mL, unit text excluded.

## Task Determine from records and report AUC for `N[C@@H](Cc1ccc(N(CCCl)CCCl)cc1)C(=O)O`
## Result 3900

---

- assay.notes: PK of melphalan in plasma by ESI-LC-MS/MS in patients undergoing HSCT
- Assay type: in vivo
- condition.summary: human, intravenous, full dose, ESI-LC-MS/MS method, n=5, read-out: calculated mean AUC
observed.property: AUC
Returns: string containing the number followed by the unit.

## Task Dear colleague, please send me the reported AUC for `N[C@@H](Cc1ccc(N(CCCl)CCCl)cc1)C(=O)O` when you can.
## Result 4300 ng·h/mL

---

- assay.notes: Melphalan test dose and full dose pharmacokinetics in patients undergoing RIC allogeneic HCT for non-malignant disorders (Bayesian analysis of plasma concentrations)
- Assay type: in vivo, human
- condition.summary: human, plasma, intravenous, median; Total, N = 23 (24); read-out: Full dose AUC
observed.property: AUC (ng·h/mL)
Form entry: value (ng·h/mL) — number only.

## Task For the molecule N[C@@H](Cc1ccc(N(CCCl)CCCl)cc1)C(=O)O [melphalan] , give its measured AUC value.
## Result 5000

---

- assay.notes: Melphalan test dose and full dose pharmacokinetics in patients undergoing RIC allogeneic HCT for non-malignant disorders (Bayesian analysis of plasma concentrations)
- Type: in vivo, human
- condition.summary: human, plasma, intravenous, 70 mg/m^2, patient with VOD and diffuse alveolar hemorrhage, ataxia telangiectasia; read-out: full dose melphalan AUC
observed.property: AUC (ng·h/mL)
Note: unit ng·h/mL is implicit; provide only the numeric part.

## Task Report AUC, nothing else, for this compound: `N[C@@H](Cc1ccc(N(CCCl)CCCl)cc1)C(=O)O`
## Result 5000

---

- assay.notes: Melphalan test dose and full dose pharmacokinetics in patients undergoing RIC allogeneic HCT for non-malignant disorders (Bayesian analysis of plasma concentrations)
- Assay type: in vivo, human
- condition.summary: human, plasma, intravenous, 140 mg/m2, median and range; patients >10 kg, standard dose 140 mg/m2, n=11; read-out: full dose AUC
observed.property: AUC (ng·h/mL)
Your answer is read as ng·h/mL, so omit the unit and give the number.

## Task Please supply the value of reported AUC for the item N[C@@H](Cc1ccc(N(CCCl)CCCl)cc1)C(=O)O [melphalan]
## Result 5500

---

- assay.notes: Real-time PK study of melphalan in whole blood by PS-MS/MS in patients undergoing HSCT
- Assay type: in vivo
- condition.summary: human, intravenous, full dose, PS-MS/MS method, n=5, read-out: calculated mean AUC
observed.property: AUC (ng·h/mL)
Give a bare numeral; the unit ng·h/mL is implied.

## Task Answer with reported AUC of `N[C@@H](Cc1ccc(N(CCCl)CCCl)cc1)C(=O)O`
## Result 4900

---

- assay.notes: Melphalan test dose and full dose pharmacokinetics in patients undergoing RIC allogeneic HCT for non-malignant disorders (Bayesian analysis of plasma concentrations)
- Type: in vivo, human
- condition.summary: human, plasma, intravenous; full dose melphalan, RIC HCT for non-malignant disorders; read-out: AUC range well tolerated without excess toxicity and sufficient to facilitate engraftment with full donor chimerism
observed.property: AUC

## Task Provide one value: measured AUC of N[C@@H](Cc1ccc(N(CCCl)CCCl)cc1)C(=O)O [melphalan]
## Result 3500 to 6500 ng·h/mL

---

- assay.notes: Melphalan test dose and full dose pharmacokinetics in patients undergoing RIC allogeneic HCT for non-malignant disorders (Bayesian analysis of plasma concentrations)
- Assay type: in vivo, human
- condition.summary: human, plasma, intravenous, median; Standard full dose, N = 17 (17); read-out: Full dose AUC
observed.property: AUC

## Task In one line, give reported AUC of the entry N[C@@H](Cc1ccc(N(CCCl)CCCl)cc1)C(=O)O [melphalan] .
## Result 5500 ng·h/mL

---

- assay.notes: Melphalan test dose and full dose pharmacokinetics in patients undergoing RIC allogeneic HCT for non-malignant disorders (Bayesian analysis of plasma concentrations)
- Format: in vivo, human
- condition.summary: human, plasma, intravenous, five patients, adjusted full dose 29% to 70% of standard dose; read-out: actual observed AUC with the adjusted dose
observed.property: AUC

## Task Quickly give me recorded AUC for N[C@@H](Cc1ccc(N(CCCl)CCCl)cc1)C(=O)O [melphalan]
## Result 3600 to 5400 ng·h/mL

---

- assay.notes: Melphalan test dose and full dose pharmacokinetics in patients undergoing RIC allogeneic HCT for non-malignant disorders (Bayesian analysis of plasma concentrations)
- Type: in vivo, human
- condition.summary: human, plasma, intravenous, patients with impaired organ function, adjusted full dose; read-out: observed AUC based on the test dose PK guided adjustment
observed.property: AUC (ng·h/mL)
Report the value in ng·h/mL with no unit label.

## Task Query AUC for `N[C@@H](Cc1ccc(N(CCCl)CCCl)cc1)C(=O)O`
## Result 3900

---

- assay.notes: Melphalan test dose and full dose pharmacokinetics in patients undergoing RIC allogeneic HCT for non-malignant disorders (Bayesian analysis of plasma concentrations)
- Assay type: in vivo, human
- condition.summary: human, plasma, intravenous, median and range; 17 patients who received standard full dose; read-out: full dose AUC
observed.property: AUC
Answers without a unit are incomplete; give the number and then its unit.

## Task Name the recorded AUC of the item N[C@@H](Cc1ccc(N(CCCl)CCCl)cc1)C(=O)O [melphalan] in your answer.
## Result 5500 ng·h/mL

---

- assay.notes: Melphalan test dose and full dose pharmacokinetics in patients undergoing RIC allogeneic HCT for non-malignant disorders (Bayesian analysis of plasma concentrations)
- Type: in vivo, human
- condition.summary: human, plasma, intravenous, median; Total, N = 22 (23); read-out: Test dose AUC
observed.property: AUC (ng·h/mL)
# value in ng·h/mL; strip the unit string

## Task Using known records, supply AUC for `N[C@@H](Cc1ccc(N(CCCl)CCCl)cc1)C(=O)O`
## Result 590

---

- assay.notes: Real-time PK study of melphalan in whole blood by PS-MS/MS in patients undergoing HSCT
- Assay type: in vivo
- condition.summary: human, intravenous, 10 % of the expected standard full dose, lower test doses, PS-MS/MS, n=4, read-out: calculated mean AUC
observed.property: AUC (ng·h/mL)
Respond numerically; units are ng·h/mL and should not be typed.

## Task Please give the documented AUC of `N[C@@H](Cc1ccc(N(CCCl)CCCl)cc1)C(=O)O`
## Result 410

---

- assay.notes: Melphalan test dose and full dose pharmacokinetics in patients undergoing RIC allogeneic HCT for non-malignant disorders (Bayesian analysis of plasma concentrations)
- Assay type: in vivo, human
- condition.summary: human, plasma, intravenous, median and range; six patients (7 transplants) with impaired organ function, adjusted full dose; read-out: test dose AUC
observed.property: AUC (ng·h/mL)
Report only the number, with the unit ng·h/mL understood.

## Task Dear colleague, please send me the reported AUC for `N[C@@H](Cc1ccc(N(CCCl)CCCl)cc1)C(=O)O` when you can.
## Result 840

---

- assay.notes: Melphalan test dose and full dose pharmacokinetics in patients undergoing RIC allogeneic HCT for non-malignant disorders (Bayesian analysis of plasma concentrations)
- Format: in vivo, human
- condition.summary: human, plasma, intravenous, 1.2 mg/kg, sixth patient, second HCT, full dose 1.2 mg/kg (25.5% of standard dose); read-out: actual observed AUC
- Description: Patients undergoing allogeneic HCT for non-malignant disorders with a uniform RIC regimen that included alemtuzumab, fludarabine and melphalan were enrolled in this study. […] Blood samples were obtained for PK measurement after the administration of test dose and the full standard dose of melphalan. […] Acute and chronic GVHD were assessed by standardized published criteria. […]
observed.property: AUC (ng·h/mL)
Write the answer as a number in ng·h/mL, unit excluded.

## Task Note down AUC recorded for `N[C@@H](Cc1ccc(N(CCCl)CCCl)cc1)C(=O)O`
## Result 3900

---

- assay.notes: PK of melphalan in plasma by ESI-LC-MS/MS in patients undergoing HSCT
- Format: in vivo
- condition.summary: human, intravenous, Full Dose, individual patients and mean row, read-out: ESI-LC-MS/MS Plasma AUC
observed.property: AUC (ng·h/mL)
Write the number in ng·h/mL without appending the unit.

## Task Complete the entry with AUC for `N[C@@H](Cc1ccc(N(CCCl)CCCl)cc1)C(=O)O`
## Result 3900

---

- assay.notes: Melphalan test dose and full dose pharmacokinetics in patients undergoing RIC allogeneic HCT for non-malignant disorders (Bayesian analysis of plasma concentrations)
- Assay type: in vivo, human
- condition.summary: human, plasma, intravenous, 4.7 mg/kg, median and range; patients <10 kg, standard dose 4.7 mg/kg, n=6; read-out: full dose AUC
observed.property: AUC
In your response, the unit should come after the numeric value.

## Task Provide measured AUC value, entry: `N[C@@H](Cc1ccc(N(CCCl)CCCl)cc1)C(=O)O`
## Result 4800 ng·h/mL
